assay: Selectivity index, ratio of CC50 for human MT4 cells infected with HCV genotype 1a H77 to EC50 for NS5A in HCV genotype 1a H77 infected in human MT4 replicon cells; format: toxicity, cell-based; conditions: read-out: Ratio CC50/EC50
endpoint name: selectivity ratio

Look up selectivity ratio: COC[C@H]1C[C@@H](c2ncc(-c3ccc4c(c3)COc3cc5c(ccc6nc([C@@H]7CC[C@H](C)N7C(=O)[C@@H](NC(=O)OC)C(C)C)[nH]c65)cc3-4)[nH]2)N(C(=O)[C@H](NC(=O)OC)c2ccccc2)C1 > 4.9e+06

###

assay: Volume of distribution at steady state in monkey at 0.5 mg/kg, iv; format: ADME, organism-based, Macaca mulatta; details: rhesus monkey, in vivo, read-out: Vdss
endpoint name: Vd

I'd like to know its Vd. The compound in question is COC[C@H]1C[C@@H](c2ncc(-c3ccc4c(c3)COc3cc5c(ccc6nc([C@@H]7CC[C@H](C)N7C(=O)[C@@H](NC(=O)OC)C(C)C)[nH]c65)cc3-4)[nH]2)N(C(=O)[C@H](NC(=O)OC)c2ccccc2)C1 1.6 L/kg

###

assay: Selectivity index, ratio of CC50 for human Huh7 cells infected with HCV genotype 1a H77 to EC50 for NS5A in HCV genotype 1a H77 infected in human HuH7 replicon cells; format: toxicity, cell-based; conditions: read-out: Ratio CC50/EC50
endpoint name: selectivity ratio

Quick check: selectivity ratio of COC[C@H]1C[C@@H](c2ncc(-c3ccc4c(c3)COc3cc5c(ccc6nc([C@@H]7CC[C@H](C)N7C(=O)[C@@H](NC(=O)OC)C(C)C)[nH]c65)cc3-4)[nH]2)N(C(=O)[C@H](NC(=O)OC)c2ccccc2)C1 [VELPATASVIR] ? > 4.9e+06

###

experiment: Volume of distribution at steady state in dog at 0.25 mg/kg, iv; assay type: ADME, organism-based, Canis lupus familiaris; conditions: in vivo, read-out: Vdss
endpoint name: Vd (L/kg)
Value expressed in L/kg; do not type the unit.

Please give the measured Vd for this compound: COC[C@H]1C[C@@H](c2ncc(-c3ccc4c(c3)COc3cc5c(ccc6nc([C@@H]7CC[C@H](C)N7C(=O)[C@@H](NC(=O)OC)C(C)C)[nH]c65)cc3-4)[nH]2)N(C(=O)[C@H](NC(=O)OC)c2ccccc2)C1 [VELPATASVIR] 1.43

###

test: Oral bioavailability in human at 100 mg; assay type: ADME, organism-based; details: in vivo
endpoint name: bioavailability (%)
State the answer as a number, implicitly in %.

Return reported bioavailability; argument: COC[C@H]1C[C@@H](c2ncc(-c3ccc4c(c3)COc3cc5c(ccc6nc([C@@H]7CC[C@H](C)N7C(=O)[C@@H](NC(=O)OC)C(C)C)[nH]c65)cc3-4)[nH]2)N(C(=O)[C@H](NC(=O)OC)c2ccccc2)C1 50

###

experiment: Half life in rat at 2 mg/kg, iv; assay type: ADME, organism-based; conditions: in vivo
endpoint name: half-life (h)
Value expressed in h; do not type the unit.

Give its half-life value. Item: COC[C@H]1C[C@@H](c2ncc(-c3ccc4c(c3)COc3cc5c(ccc6nc([C@@H]7CC[C@H](C)N7C(=O)[C@@H](NC(=O)OC)C(C)C)[nH]c65)cc3-4)[nH]2)N(C(=O)[C@H](NC(=O)OC)c2ccccc2)C1 2.25

###

assay: Clearance in rat at 2 mg/kg, iv; assay type: ADME, organism-based; details: in vivo
endpoint name: clearance (mL/min/kg)
// return numeric value only (unit: mL/min/kg, not printed)

# input compound: COC[C@H]1C[C@@H](c2ncc(-c3ccc4c(c3)COc3cc5c(ccc6nc([C@@H]7CC[C@H](C)N7C(=O)[C@@H](NC(=O)OC)C(C)C)[nH]c65)cc3-4)[nH]2)N(C(=O)[C@H](NC(=O)OC)c2ccccc2)C1 ; wanted: its clearance 15.7

###

assay: Half life in human at 100 mg, po; type: ADME; settings: in vivo
endpoint name: half-life (h)
Answer format: numeric, h implied, no suffix.

Fill blank: measured half-life of the compound COC[C@H]1C[C@@H](c2ncc(-c3ccc4c(c3)COc3cc5c(ccc6nc([C@@H]7CC[C@H](C)N7C(=O)[C@@H](NC(=O)OC)C(C)C)[nH]c65)cc3-4)[nH]2)N(C(=O)[C@H](NC(=O)OC)c2ccccc2)C1 [VELPATASVIR] is ____. 15.7

###

assay: Cytotoxicity against human HepG2 cells infected with HCV genotype 1b Con-1 assessed as reduction in cell viability incubated for 5 days by CellTiter-Glo luminescent assay; assay type: cell-based
endpoint name: CC50 at 120 h

Could you tell me which CC50 at 120 h is on file for COC[C@H]1C[C@@H](c2ncc(-c3ccc4c(c3)COc3cc5c(ccc6nc([C@@H]7CC[C@H](C)N7C(=O)[C@@H](NC(=O)OC)C(C)C)[nH]c65)cc3-4)[nH]2)N(C(=O)[C@H](NC(=O)OC)c2ccccc2)C1 ? > 44.4 µM

###

experiment: Cytotoxicity against human PC3 cells infected with HCV genotype 1a H77 assessed as reduction in cell viability incubated for 5 days by CellTiter-Glo luminescent assay; assay type: cell-based, PC-3
endpoint name: CC50 at 120 h

Quick one: CC50 at 120 h for COC[C@H]1C[C@@H](c2ncc(-c3ccc4c(c3)COc3cc5c(ccc6nc([C@@H]7CC[C@H](C)N7C(=O)[C@@H](NC(=O)OC)C(C)C)[nH]c65)cc3-4)[nH]2)N(C(=O)[C@H](NC(=O)OC)c2ccccc2)C1 ? > 44.4 µM

###

experiment: Selectivity index, ratio of CC50 for human MRC5 cells infected with HCV genotype 1a H77 to EC50 for NS5A in HCV genotype 1a H77 infected in human MRC5 replicon cells; format: toxicity, cell-based; conditions: read-out: Ratio CC50/EC50
endpoint name: selectivity ratio

Quick check: selectivity ratio of COC[C@H]1C[C@@H](c2ncc(-c3ccc4c(c3)COc3cc5c(ccc6nc([C@@H]7CC[C@H](C)N7C(=O)[C@@H](NC(=O)OC)C(C)C)[nH]c65)cc3-4)[nH]2)N(C(=O)[C@H](NC(=O)OC)c2ccccc2)C1 [VELPATASVIR] ? > 4.9e+06

###

test: Fraction absorbed in dog; assay type: ADME, Canis lupus familiaris; settings: in vivo, read-out: Fabs
Assign Fulfilled whenever Fa does not fall below 60%; assign Not fulfilled whenever it does.

Use the examples below as a reference point.
Is the recorded value of Fa equal to or greater than 60% for this compound? COC[C@H]1C[C@@H](c2ncc(-c3ccc4c(c3)COc3cc5c(ccc6nc([C@@H]7CC[C@H](C)N7C(=O)[C@@H](NC(=O)OC)C(C)C)[nH]c65)cc3-4)[nH]2)N(C(=O)[C@H](NC(=O)OC)c2ccccc2)C1 [VELPATASVIR] Not fulfilled

For this compound, is measured Fa 60% or higher? COC[C@H]1C[C@@H](c2nc3ccc4cc5c(cc4c3[nH]2)OCc2cc(-c3cnc([C@@H]4CCCN4C(=O)[C@@H](NC(=O)OC)C(C)C)[nH]3)ccc2-5)N(C(=O)[C@@H](NC(=O)OC)C(C)C)C1 Not fulfilled

Would you say COC(=O)N[C@@H](C(=O)N1[C@@H](C)CC[C@H]1c1ncc(-c2cc3c4c(c2)OCc2cc(-c5cnc([C@@H]6CC[C@H](C)N6C(=O)[C@H](NC(=O)OC)c6ccccc6)[nH]5)cc(c2-4)OC3)[nH]1)c1ccccc1 shows Fa at minimum 60%? Not fulfilled

Check the entry COC(=O)N[C@@H](C(=O)N1C[C@@H](C)C[C@H]1c1ncc(-c2cc3c4c(c2)OCc2cc(-c5cnc([C@@H]6C[C@H](C)CN6C(=O)[C@H](NC(=O)OC)c6ccccc6)[nH]5)cc(c2-4)OC3)[nH]1)c1ccccc1 : does Fa equal or exceed 60%? Not fulfilled

Continuing:
Please tell me: is the compound COC(=O)N[C@H](C(=O)N1CCC[C@H]1c1ncc(-c2cc3c4c(c2)COc2cc(-c5cnc([C@@H]6CCCN6C(=O)[C@@H](NC(=O)OC)C(C)C)[nH]5)cc(c2-4)OC3)[nH]1)C(C)C at or over 60% in terms of Fa? Fulfilled

Confirm if Fa reported for the compound COC(=O)N[C@H](C(=O)N1CCC[C@H]1c1ncc(-c2cc3c4c(c2)OCc2cc(-c5cnc([C@@H]6CCCN6C(=O)[C@@H](NC(=O)OC)C(C)C)[nH]5)cc(c2-4)OC3)[nH]1)C(C)C is 60% or above. Fulfilled

###

assay: Cytotoxicity against human MRC5 cells infected with HCV genotype 1b Con-1 assessed as reduction in cell viability incubated for 5 days by CellTiter-Glo luminescent assay; format: cell-based
endpoint name: CC50 at 120 h

Could you share which CC50 at 120 h value was measured for COC[C@H]1C[C@@H](c2ncc(-c3ccc4c(c3)COc3cc5c(ccc6nc([C@@H]7CC[C@H](C)N7C(=O)[C@@H](NC(=O)OC)C(C)C)[nH]c65)cc3-4)[nH]2)N(C(=O)[C@H](NC(=O)OC)c2ccccc2)C1 [VELPATASVIR] ? > 44.4 µM

Recorded values, source ChEMBL document CHEMBL4385622.
